# System: A. baumannii ATCC BAA-1710
# testProtocol: MIC, agar plate dilution method, A. baumannii ATCC BAA-1710
# Format: cell-based, Acinetobacter baumannii
# testContext: Acinetobacter baumannii, ATCCBAA1710, A. baumannii ATCC BAA-1710, MDRA, read-out: minimal inhibitory concentration (MIC)
So I've got a bunch of compounds here, and I need their MIC values.
Your answer is read as mg/L, so omit the unit and give the number.

Name the recorded MIC of the compound listed here: CNC1C(O[C@H]2OC(CO)[C@@H](NCCCN)[C@H](O)C2O)O[C@H]2CC(N)[C@@H](O[C@@H]3C(N)C[C@@H](N)C(O)[C@H]3O)OC2C1O (some centres unmarked) [Compound A4-b, 4″-N-(3-aminopropyl)apramycin]
8

Name the recorded MIC of the compound listed here: CNC1C(O[C@H]2OC(CO)[C@@H](NC(=O)[C@@H](O)CN)[C@H](O)C2O)O[C@H]2C[C@H](N)[C@@H](O[C@@H]3C(N)C[C@@H](N)C(O)[C@H]3O)OC2C1O (stereo partly drawn) [Compound V1-n, 5-epi-4″-N-(L-isoseryl)apramycin]
8

====

# Tested on: E. faecium ATCC19434
# testProtocol: MIC, agar plate dilution method, E. faecium ATCC19434
# Assay type: cell-based, Enterococcus faecium
# testContext: E. faecium ATCC19434
measuredAttribute: minimal inhibitory concentration (MIC) (µg/mL)
Your answer is read as µg/mL, so omit the unit and give the number.

Name the recorded minimal inhibitory concentration (MIC) of the molecule listed here: CN[C@@H]1[C@@H](O[C@H]2O[C@H](CO)[C@@H](N)C[C@H]2O)O[C@H]2C[C@@H](N)[C@@H](O[C@@H]3[C@@H](N)C[C@@H](N)C[C@@H]3O)O[C@@H]2[C@@H]1O [Compound N5, 6,3″-dideoxy-5-epiapramycin]
8

Name the recorded minimal inhibitory concentration (MIC) of the molecule listed here: CNC1C(OC2OC(CO)C(N)C(O)C2O)OC2CC(N)C(OC3C(N)CC(N)C(O)C3F)OC2C1O (stereo not drawn) [Compound B7, 5-deoxy-5-epi-5-fluoroapramycin]
32

Name the recorded minimal inhibitory concentration (MIC) of the molecule listed here: CN[C@@H]1[C@@H](O[C@@H]2C[C@H](O)[C@H](N)[C@@H](CO)O2)O[C@H]2C[C@@H](N)[C@@H](O[C@H]3[C@@H](F)[C@@H](O)[C@H](N)C[C@@H]3N)O[C@@H]2[C@@H]1O
8

Name the recorded minimal inhibitory concentration (MIC) of the molecule listed here: CNCC(=O)N[C@@H]1C(CO)O[C@H](OC2O[C@H]3CC(N)[C@@H](O[C@@H]4C(N)C[C@@H](N)C(O)[C@H]4O)OC3C(O)C2NC)C(O)[C@H]1O (stereo partly drawn) [Compound V1-j, 5-epi-4″-N-sarcosylapramycin]
8

Name the recorded minimal inhibitory concentration (MIC) of the molecule listed here: CNC1C(OC2OC(CO)C(N)C(O)C2O)OC2CC(N)C(OC3C(N)CC(N)C(O)C3O)OC2C1O (stereo not shown) [Compound B5, 5-epiapramycin]
16

Name the recorded minimal inhibitory concentration (MIC) of the molecule listed here: CNC1C(OC2OC(CO)C(NCC3(N)CCCC3)C(O)C2O)OC2CC(N)C(OC3C(N)CC(N)C(O)C3O)OC2C1O (stereo not shown)
16

Name the recorded minimal inhibitory concentration (MIC) of the molecule listed here: CNC1C(OC2OC(CO)C(N)CC2O)OC2CC(N)C(OC3C(N)CC(N)C(O)C3N)OC2C1O (stereo not shown) [Compound N9, 5-amino-5,3″-dideoxy-5-epiapramycin]
16

Name the recorded minimal inhibitory concentration (MIC) of the molecule listed here: CN[C@@H]1[C@@H](O[C@H]2O[C@H](C)[C@@H](N)C[C@H]2O)O[C@H]2C[C@@H](N)[C@@H](O[C@H]3[C@H](O)[C@@H](O)[C@H](N)C[C@@H]3N)O[C@@H]2[C@@H]1O
8

Name the recorded minimal inhibitory concentration (MIC) of the molecule listed here: CNC1C(OC2CC(O)C(N)C(CO)O2)OC2CC(N)C(OC3C(N)CC(N)C(O)C3O)OC2C1O (stereo not shown) [Compound Y3, 2″-deoxy-5,3″-diepiapramycin]
8

Name the recorded minimal inhibitory concentration (MIC) of the molecule listed here: CNC1C(OC2OC(CO)C(N)C(O)C2O)OC2CC(N)C(OC3C(N)CC(N)CC3N)OC2C1O (stereo not shown)
32
